Cited source: patent US12263171B2

// pIC50 lookup, one value per entry
- TESTED_SYSTEM: human A2b adenosine receptor (Homo sapiens (Human), UniProt P29275)
- Sequence (P29275 whole entry): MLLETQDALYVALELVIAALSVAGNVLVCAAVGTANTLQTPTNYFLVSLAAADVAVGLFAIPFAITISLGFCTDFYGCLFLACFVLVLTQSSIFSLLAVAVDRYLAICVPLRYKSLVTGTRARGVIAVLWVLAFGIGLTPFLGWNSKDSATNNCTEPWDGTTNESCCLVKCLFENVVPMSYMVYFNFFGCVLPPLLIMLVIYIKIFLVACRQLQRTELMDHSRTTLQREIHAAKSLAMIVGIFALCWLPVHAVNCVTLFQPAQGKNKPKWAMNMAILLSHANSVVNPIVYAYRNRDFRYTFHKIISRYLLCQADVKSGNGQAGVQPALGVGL
- EXPERIMENTAL_DETAILS: A2B antagonism in cAMP cell-based assay (LANCE cAMP, HEK293 cells, 600 nM adenosine)
- ASSAY_CONTEXT: values marked *: cAMP cell-based assay
# log scale: pIC50 equals minus log10 of the concentration in mol/L

Here's what some known entries look like.
COc1cccc2c1nc(N)n1nc(C3CN(c4cnn(CC(F)(F)F)c4)CC(F)(F)C3)nc21 (single isomer, unassigned) [Example 155A] = 5.88
COc1cccc2c1nc(N)n1nc(C3CN(c4cnn(CC(F)(F)F)c4)CC(F)(F)C3)nc21 (single isomer, unassigned) [Example 155B] = 6.52
COc1cccc2c1nc(N)n1nc([C@@H]3CCCN(c4cnn(C5CC5)c4)C3)nc21 = 7.41

IN: What value of measured pIC50 is listed for COc1ccc2c(c1)nc(N)n1nc([C@@H]3CCCN(c4cnn([C@H](C)[C@H](C)O)c4)C3)nc21 [Example 221B] ?
OUT: 7.07

IN: Moving on to "COc1cccc2c1nc(N)n1nc([C@@H]3CCN(c4cnn(C(C)(C)C)c4)C3)nc21"
OUT: 7.38

IN: Then this compound: COc1cccc2c1nc(N)n1nc([C@@H]3CCC[C@@H](c4cnn(C)c4)C3)nc21 [Example 136B]
OUT: 6.39

IN: For "COc1cccc2c1nc(N)n1nc([C@@H]3CCCN(c4ccc(C(F)(F)F)nc4)C3)nc21" then?
OUT: 6.67

IN: Input CCn1cc(N2C[C@H](c3nc4c5cccc(OC)c5nc(N)n4n3)CC[C@@H]2C)cn1 [Example 140D]
OUT: 5.52

IN: Also "COc1cccc2c1nc(N)n1nc([C@@H]3CCCN(c4cnn(C(F)F)c4)C3)nc21" , if possible.
OUT: 7.37

IN: Now the same for "COc1cccc2c1nc(N)n1nc([C@@H]3CCCN(c4cncn4C)C3)nc21"
OUT: 6.84

IN: // query: "COc1cccc2c1nc(N)n1nc([C@@H]3CCCN(c4ncc(F)cn4)C3)nc21"
OUT: 6.14
